target: intracellular phosphorylation of EGFR in NCI-H1975 cell line that harbors the EGFR L858R T790M mutations (Homo sapiens, UniProt P00533, L858R/T790M)
Construct: NCI-H1975 cell line that harbors the EGFR L858R T790M mutations (ATCC, CRL-5908); host or cells: NCI-H1975
Sequence (P00533 25-1210 T790M/L858R): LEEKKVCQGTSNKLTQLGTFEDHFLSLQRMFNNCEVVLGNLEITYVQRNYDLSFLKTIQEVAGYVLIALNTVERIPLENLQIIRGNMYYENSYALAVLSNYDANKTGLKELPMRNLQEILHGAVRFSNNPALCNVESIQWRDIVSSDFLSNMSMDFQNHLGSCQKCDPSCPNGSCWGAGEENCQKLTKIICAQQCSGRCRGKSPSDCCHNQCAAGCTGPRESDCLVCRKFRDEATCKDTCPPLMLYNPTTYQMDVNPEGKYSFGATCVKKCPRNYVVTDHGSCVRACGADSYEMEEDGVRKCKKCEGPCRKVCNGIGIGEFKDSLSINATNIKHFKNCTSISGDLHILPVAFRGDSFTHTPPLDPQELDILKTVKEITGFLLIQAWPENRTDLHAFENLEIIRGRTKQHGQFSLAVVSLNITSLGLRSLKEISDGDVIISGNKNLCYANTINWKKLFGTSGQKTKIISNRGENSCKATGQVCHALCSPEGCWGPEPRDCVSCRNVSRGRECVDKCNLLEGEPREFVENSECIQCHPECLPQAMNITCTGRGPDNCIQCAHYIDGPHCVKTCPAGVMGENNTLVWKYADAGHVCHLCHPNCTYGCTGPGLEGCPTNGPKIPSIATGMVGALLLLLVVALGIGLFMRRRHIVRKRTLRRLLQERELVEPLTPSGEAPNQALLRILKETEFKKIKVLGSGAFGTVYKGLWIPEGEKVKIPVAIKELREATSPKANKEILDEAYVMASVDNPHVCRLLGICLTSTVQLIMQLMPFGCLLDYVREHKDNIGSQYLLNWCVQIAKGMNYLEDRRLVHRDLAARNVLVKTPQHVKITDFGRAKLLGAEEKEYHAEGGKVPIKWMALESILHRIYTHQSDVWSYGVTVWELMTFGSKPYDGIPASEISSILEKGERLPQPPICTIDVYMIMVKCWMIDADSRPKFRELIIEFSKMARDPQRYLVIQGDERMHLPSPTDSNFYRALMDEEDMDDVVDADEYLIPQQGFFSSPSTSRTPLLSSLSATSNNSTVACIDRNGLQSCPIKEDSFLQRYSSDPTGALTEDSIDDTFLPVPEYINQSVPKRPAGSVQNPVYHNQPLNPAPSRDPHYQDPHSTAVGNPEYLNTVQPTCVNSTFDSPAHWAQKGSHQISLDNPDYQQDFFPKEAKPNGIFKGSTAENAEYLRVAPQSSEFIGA
procedure_details: NCI-H1975 pEGFR AlphaLISA assay
Assay type: cell-based
assay_setup: NCI-H1975 cells (EGFR L858R T790M), p-EGFR (Tyr1068), 4-5 hours incubation; read-out: Ext pEGFR H1975 GMean IC50 (nM) Protocol: @Pharmaron AlphaLISA (Num)
Readings of IC50 for the listed compounds

INSERT INTO measurements (compound, result_value) VALUES
  ('[2H]C([2H])([2H])O[C@@H]1CCN(c2nccc(Nc3cc4c(C(C)C)cnc(N5C[C@H](O)[C@H]5C)c4cn3)n2)C[C@@H]1F [Example 139]', '< 10 nM'),
  ('CC(C)c1cnc(N2CC3(C2)CC3(F)F)c2cnc(Nc3ccnc(N4CC[C@@H](O)[C@@](C)(F)C4)n3)cc12 [Example 59]', '10 to 20 nM'),
  ('CO[C@H]1CCN(c2nccc(Nc3cc4c(C(C)C)cnc(N5CC(O)C5)c4cn3)n2)C[C@H]1F [Example 44]', '20 to 30 nM'),
  ('CC(=O)N1CC(c2ccc(C(C)C)c3cc(Nc4ccnc(N5CC[C@@H](O)[C@@](C)(F)C5)n4)ncc23)C1 [Example 4]', '20 to 30 nM'),
  ('CO[C@@H]1CCN(c2nccc(Nc3cc4c(C(C)C)cnc(N5CC(O)C5)c4cn3)n2)C[C@@H]1F [Example 147]', '20 to 30 nM');

Ask | Suppose we examine the compound C[C@@H]1CCN1c1ncc([C@@H](C)C(C)(C)O)c2cc(Nc3ccnc(N4CC[C@@H](O)[C@@](C)(F)C4)n3)ncc12 (single isomer, unassigned) [Example 186] ; what IC50 value has been reported?
Reply | 10 to 20 nM

Ask | Suppose we examine the compound CC(C)c1cnc(N2C[C@H](O)[C@H]2C)c2cnc(Nc3ccnc(N4CC[C@@](C)(O)[C@@H](F)C4)n3)cc12 (single isomer, unassigned) [Example 172] ; what IC50 value has been reported?
Reply | > 50 nM

Ask | Suppose we examine the compound COC1CN(c2ccc([C@@H](C)CO)c3cc(Nc4ccnc(N5CC[C@@H](O)[C@@](C)(F)C5)n4)ncc23)C1 (single isomer, unassigned) [Example 180] ; what IC50 value has been reported?
Reply | > 50 nM

Ask | Suppose we examine the compound CNC(=O)CC1CN(c2ncc(C(C)C)c3cc(Nc4ccnc(N5CC[C@@H](O)[C@@](C)(F)C5)n4)ncc23)C1 [Example 87] ; what IC50 value has been reported?
Reply | 20 to 30 nM

Ask | Suppose we examine the compound CO[C@@H]1CCN(c2nccc(Nc3cc4c(C(C)C)ccc(N5C[C@H](O)[C@H]5C)c4cn3)n2)C[C@@H]1O (single isomer, unassigned) [Example 123] ; what IC50 value has been reported?
Reply | > 50 nM

Ask | Suppose we examine the compound CO[C@@H]1CCN(c2nccc(Nc3cc4c(C(C)C)cnc(N5CC(F)C5)c4cn3)n2)C[C@@H]1O (single isomer, unassigned) [Example 118] ; what IC50 value has been reported?
Reply | > 50 nM

Ask | Suppose we examine the compound CC(C)c1ncc(-c2ncn(C)n2)c2cnc(Nc3ccnc(N4CC[C@@H](O)[C@@](C)(F)C4)n3)cc12 [Example 6] ; what IC50 value has been reported?
Reply | > 50 nM

The origin of these recorded values is patent US20240382483A1.
